System: VCR resistant murine leukemic (P388/VCR) cells
Experiment: In vivo effect of overcoming resistance to vincristine in VCR resistant murine leukemia cell bearing mice (intraperitoneal)
Set-up: species or system CDF1 male mice
Details: VCR (100 μg/kg) + compound (100 mg/kg), i.p., 5 days; vs non-administered control
QUANTITY_MEASURED: Rate of prolongation of life (T/C %)
Response body: numeric value in %, unit text excluded.

Reference set, count: 4
>  <COMPOUND>
O=C(NN=Cc1c(-c2ccccc2)nc2sc3c(n12)CCCC3)c1ccccc1

>  <EXPERIMENTAL_RESULT>
115

$$$$
>  <COMPOUND>
CN1CCCC(C(=O)NN=Cc2c(-c3ccccc3)nc3sc4c(n23)CCCC4)C1 (centres unmarked)

>  <EXPERIMENTAL_RESULT>
138

$$$$
>  <COMPOUND>
O=C(NN=Cc1c(-c2ccc(-c3ccccc3)cc2)nc2sc3c(n12)CCCC3)c1cccnc1

>  <EXPERIMENTAL_RESULT>
121

$$$$
>  <COMPOUND>
O=C(NN=Cc1c(-c2ccccc2)nc2sc3c(n12)CCCC3)c1cccnc1

>  <EXPERIMENTAL_RESULT>
118

$$$$

The record that follows has no Rate of prolongation of life (T/C %) shown yet.
INPUT: Tell me Rate of prolongation of life (T/C %) reported for COc1cc(-c2nc3sc4c(n3c2C=NNC(=O)c2cccnc2)CCCC4)cc(OC)c1OC
OUTPUT: 127
